# test target: T1, ECF16_3622
# T1 chain: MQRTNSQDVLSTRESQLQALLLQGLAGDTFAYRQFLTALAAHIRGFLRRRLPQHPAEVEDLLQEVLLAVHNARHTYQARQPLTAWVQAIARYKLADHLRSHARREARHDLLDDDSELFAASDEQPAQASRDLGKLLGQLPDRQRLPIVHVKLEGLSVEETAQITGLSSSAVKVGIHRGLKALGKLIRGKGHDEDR
metric name: fold repression
Just the number, please, no unit attached.

Q: Determine from records and report fold repression for AS15_524 (protein) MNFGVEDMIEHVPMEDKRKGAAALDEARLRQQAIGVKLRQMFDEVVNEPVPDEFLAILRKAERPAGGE
Ans: 7.87

Q: Determine from records and report fold repression for AS31_34 (protein) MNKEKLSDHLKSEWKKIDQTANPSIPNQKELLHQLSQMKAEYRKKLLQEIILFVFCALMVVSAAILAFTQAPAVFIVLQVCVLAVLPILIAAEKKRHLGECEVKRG
Ans: 3.01

Q: Determine from records and report fold repression for AS27_4265 (protein) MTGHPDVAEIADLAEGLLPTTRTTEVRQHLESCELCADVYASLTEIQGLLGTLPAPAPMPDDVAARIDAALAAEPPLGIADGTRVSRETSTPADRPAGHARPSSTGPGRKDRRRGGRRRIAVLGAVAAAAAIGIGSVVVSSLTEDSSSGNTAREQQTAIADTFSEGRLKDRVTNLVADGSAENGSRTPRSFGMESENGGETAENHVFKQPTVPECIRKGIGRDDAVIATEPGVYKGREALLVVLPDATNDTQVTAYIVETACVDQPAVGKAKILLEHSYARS
Ans: 5.58

Q: Determine from records and report fold repression for AS15_436 (protein) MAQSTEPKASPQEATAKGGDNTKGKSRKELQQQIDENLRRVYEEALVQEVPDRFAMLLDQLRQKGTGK
Ans: 6.45

Q: Determine from records and report fold repression for AS22_1147 (protein) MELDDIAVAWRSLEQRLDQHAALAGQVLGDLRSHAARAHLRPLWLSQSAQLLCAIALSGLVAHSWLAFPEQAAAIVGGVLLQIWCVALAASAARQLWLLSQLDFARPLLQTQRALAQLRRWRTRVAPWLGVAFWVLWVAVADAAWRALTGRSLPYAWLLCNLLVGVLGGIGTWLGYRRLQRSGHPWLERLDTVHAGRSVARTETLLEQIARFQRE
Ans: 2.91

Q: Determine from records and report fold repression for AS35_3582 (protein) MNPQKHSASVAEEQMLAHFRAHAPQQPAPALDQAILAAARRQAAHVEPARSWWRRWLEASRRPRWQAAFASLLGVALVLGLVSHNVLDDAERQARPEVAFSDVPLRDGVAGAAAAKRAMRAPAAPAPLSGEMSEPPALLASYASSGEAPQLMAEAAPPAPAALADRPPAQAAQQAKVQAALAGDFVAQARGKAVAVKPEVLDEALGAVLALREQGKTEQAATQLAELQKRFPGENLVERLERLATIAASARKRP
Ans: 6.44

Q: Determine from records and report fold repression for AS33_375 (protein) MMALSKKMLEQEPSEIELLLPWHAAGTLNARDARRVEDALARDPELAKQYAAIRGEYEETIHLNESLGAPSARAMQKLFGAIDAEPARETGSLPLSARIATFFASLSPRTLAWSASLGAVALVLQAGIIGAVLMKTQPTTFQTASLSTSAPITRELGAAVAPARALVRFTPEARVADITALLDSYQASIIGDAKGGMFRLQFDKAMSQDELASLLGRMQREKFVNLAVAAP
Ans: 22.6
